- targetSystem: T1, human BTLA (human, UniProt Q7Z6A9 31-289)
- T1 construct: also called hBTLA; HEK293.hBTLA
- T1 sequence: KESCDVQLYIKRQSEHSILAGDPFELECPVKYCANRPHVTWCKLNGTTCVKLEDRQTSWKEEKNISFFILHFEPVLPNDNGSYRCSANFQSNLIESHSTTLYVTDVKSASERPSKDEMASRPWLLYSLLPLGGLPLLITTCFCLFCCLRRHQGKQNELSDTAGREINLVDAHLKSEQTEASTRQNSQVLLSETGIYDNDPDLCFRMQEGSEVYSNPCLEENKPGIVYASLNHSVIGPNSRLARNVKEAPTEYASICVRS
- experimentalDetails: flow cytometry, HEK293 cells overexpressing human BTLA

binder: HFB6-4hz24-hG1 (antibody, human IgG1, V domains shown, Humanized variant of HFB6-4, human IgG1 (hG1)) VH: EVQLVQSGAEVKKPGESLKISCKTSGFNIKDTYIHWVRQMPGKGLEWIGRNDPANGNTKYSPSFQGQVTISADKSISTAYLQLSSLKASDTAMYYCASYEGYYERFGYWGQGTLVTVSS VL: DIVMTQSPDSLAVSLGERATINCKSSQSLLDRDGKTYLNWLQQKPGQSPKRLIYLVSKLDSGVPDRFSGSGSGTDFTLTISSLQAEDLAVYYCWQDTHFPYTFGQGTKLEIK
binding result: binds

binder: HFB6-5hz1-hG1 (antibody, human IgG1, V domains shown, Humanized variant of HFB6-5, human IgG1 (hG1)) VH: QVQLVQSGAEVKKPGSSVKVSCKASGVNIKDTYMYWVRQAPGQGLEWIGRIDPANGYARYAQKFQGRATITADESTSTAYMELSSLRSEDTAVYYCAVYDGYYESFDVWGQGTLVTVSS VL: DIQMTQSPSSLSASVGDRVTITCRSSQSLLDSDGKSYLNWLQQKPGKAPKRLIYLVSKLDSGVPSRFSGSGSGTDFTLTISSLQPEDFATYYCWQGTLFPRTFGQGTKLEIK
binding result: binds

binder: HFB6-5hz18-hG1 (antibody, human IgG1, V domains shown, Humanized variant of HFB6-5, human IgG1 (hG1)) VH: EVQLVQSGAEVKKPGESLKISCKGSGVNIKDTYMYWVRQMPGKGLEWIGRIDPANGYTRYSPSFQGQVTISADKSISTAYLQLSSLKASDTAMYYCAVYDGYYESFDVWGQGTLVTVSS VL: EIVLTQSPGTLSVSPGERATISCRSSQSLLDSDGKTYLNWLQQKPGQAPRRLIYLVSKRDTGVPDRFSGSGSGTDFTLTISRVEPEDFAVYYCWQGTLFPRTFGQGTKLEIK
binding result: binds

// data source = patent US20250388673A1
